Molecular target: human BLT1 receptor (Homo sapiens)
Construct: expressed in transfected cells; host or cells: HEK293
Experiment: BLT-1 cAMP Assay
Type: cell-based
Settings: HEK293 cells recombinantly expressing human BLT1; antagonist activity vs forskolin 4 μM and LTB4 2 nM; cAMP (CisBio kit)
Binary call on EC50 with cut-off 700 nM: strictly below means Satisfied, and equality or higher means Not satisfied.

compound	assigned.category
Cn1nc(-c2ccccc2)cc1C[C@H]1COc2cc(-c3ccccc3NS(=O)(=O)C(F)(F)F)ccc2[C@@H]1O (single isomer, unassigned) [Example 36]	Not satisfied
O=S(=O)(Nc1ccccc1-c1ccc2c(c1)OC[C@@H](Cc1ccccn1)[C@@H]2O)C(F)F (single isomer, unassigned) [Example 82]	Satisfied
O=S(=O)(Nc1ccccc1-c1ccc2c(c1)OC[C@H](Cc1ncco1)[C@H]2O)C(F)(F)F (racemic) [Example 15]	Not satisfied
O=S(=O)(Nc1ncc(F)cc1-c1ccc2c(c1)OC[C@@H](Cc1ccccn1)[C@@H]2O)C(F)(F)F (single isomer, unassigned) [Example 84]	Not satisfied
CC(c1ccccn1)C1COc2cc(-c3cc(F)ccc3NS(=O)(=O)C(F)(F)F)ccc2C1O (single isomer, unassigned) [Example 101]	Satisfied

**Q:** Strictly below 700 nM: is that where EC50 of Cc1cccnc1C[C@H]1COc2cc(-c3ccccc3NS(=O)(=O)C(F)(F)F)ccc2[C@@H]1O (single isomer, unassigned) [Example 60] sits?
**A:** Satisfied

**Q:** Strictly below 700 nM: is that where EC50 of O=S(=O)(CC(F)(F)F)Nc1ncccc1-c1ccc2c(c1)OC[C@@H](Cc1ccccn1)[C@@H]2O (single isomer, unassigned) [Example 77] sits?
**A:** Satisfied

**Q:** Strictly below 700 nM: is that where EC50 of O=S(=O)(Nc1ccccc1-c1ccc2c(c1)OC[C@H](Cc1cccnn1)[C@H]2O)C(F)(F)F (racemic) [Example 28] sits?
**A:** Not satisfied

**Q:** Strictly below 700 nM: is that where EC50 of Cc1cnc(C[C@H]2COc3cc(-c4ccccc4NS(=O)(=O)C(F)(F)F)ccc3[C@@H]2O)s1 (single isomer, unassigned) [Example 53] sits?
**A:** Satisfied

**Q:** Strictly below 700 nM: is that where EC50 of O=S(=O)(Nc1ccccc1-c1ccc2c(c1)OC[C@@H](Cc1cnc(-c3ccccc3)s1)[C@@H]2O)C(F)(F)F (single isomer, unassigned) [Example 42] sits?
**A:** Satisfied

**Q:** Strictly below 700 nM: is that where EC50 of O=S(=O)(Nc1nnc(Cl)cc1-c1ccc2c(c1)OC[C@H](Cc1ccccn1)[C@H]2O)C(F)(F)F (single isomer, unassigned) [Example 89] sits?
**A:** Not satisfied

**Q:** Strictly below 700 nM: is that where EC50 of O=S(=O)(Nc1ccccc1-c1ccc2c(c1)OC[C@H](Cc1ncccc1F)[C@H]2O)C(F)(F)F (racemic) [Example 19] sits?
**A:** Not satisfied

**Q:** Strictly below 700 nM: is that where EC50 of O=S(=O)(Nc1ccccc1-c1ccc2c(c1)OC[C@@H](Cc1csc(-c3ccccc3)n1)[C@@H]2O)C(F)(F)F (single isomer, unassigned) [Example 64] sits?
**A:** Not satisfied

----------
Molecular target: human BLT1 receptor (Homo sapiens, UniProt Q15722)
Construct: expressed in transfected cells; host or cells: HEK293
Sequence (Q15722 whole entry): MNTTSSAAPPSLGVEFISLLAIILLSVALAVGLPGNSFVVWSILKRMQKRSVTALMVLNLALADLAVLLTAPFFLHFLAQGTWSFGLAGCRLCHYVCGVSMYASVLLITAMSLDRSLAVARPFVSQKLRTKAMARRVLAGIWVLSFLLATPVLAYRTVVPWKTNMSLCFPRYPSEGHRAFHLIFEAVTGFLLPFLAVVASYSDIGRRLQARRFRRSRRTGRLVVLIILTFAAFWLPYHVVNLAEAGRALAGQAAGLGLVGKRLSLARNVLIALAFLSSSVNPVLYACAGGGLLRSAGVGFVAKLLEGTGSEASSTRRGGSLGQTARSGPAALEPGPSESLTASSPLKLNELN
Experiment: BLT-1 cAMP Assay
Assay type: cell-based
Details: HEK293 cells recombinantly expressing human BLT1; antagonist activity vs forskolin 4 μM and LTB4 2 nM; cAMP (CisBio kit)
# EC50 per entry
Write the answer as a number in nM, unit excluded.

Use the examples below as a reference point.
compound	unit.text	EC50
O=S(=O)(Nc1ccccc1-c1ccc2c(c1)OC[C@@H](Cc1ccc(-c3ccccc3)cc1)[C@@H]2O)C(F)(F)F (single isomer, unassigned) [Example 67]	nM	48
O=S(=O)(Nc1ccccc1-c1ccc2c(c1)OC[C@@H](Cc1cscn1)[C@H]2O)C(F)(F)F (racemic) [Example 31]	nM	1370
O=S(=O)(Nc1ccccc1-c1ccc2c(c1)OCC(Cc1cc3ccccc3s1)C2O)C(F)(F)F (racemic) [Example 34]	nM	44
O=S(=O)(Nc1ccccc1-c1ccc2c(c1)OCC(Cc1cc[nH]n1)C2O)C(F)(F)F (racemic) [Example 6]	nM	240
CC1(S(=O)(=O)Nc2ccccc2-c2ccc3c(c2)OCC(Cc2ccccn2)C3O)CC1 (single isomer, unassigned) [Example 75]	nM	235

Then there is this compound:
**Q:** Form field: reported EC50 of O=S(=O)(Nc1ccccc1-c1ccc2c(c1)OC[C@@H](Cc1cscn1)[C@@H]2O)C(F)(F)F (single isomer, unassigned) [Example 51]
**A:** 808
